# system: A*2902 (Homo sapiens, UniProt P04439, A270S/D101N/D185E/E176V/E277Q/E87Q/F33T/G231S/H175R/I121M/I218V/I322F/K168Q/L300P/L318F/M331R/P208A/P217A/Q86L/T323A/T345S/V100A/V358M)
# experimentDescription: biochemical
# Assay type: binding
pIC50: −log10 of the molar value. No end group written: not given here.
Everything with pIC50 lower than 7 is no (0); everything else, including exactly 7, is yes (1).

[
  {
    "chainSequence": "VSRDAKGWFY [Peptide 9018.0014]",
    "labelClass": "yes (1)"
  },
  {
    "chainSequence": "ETKLGKAGY [Peptide 9015.0023]",
    "labelClass": "no (0)"
  },
  {
    "chainSequence": "STDAALYWY [Peptide 1593.02]",
    "labelClass": "yes (1)"
  },
  {
    "chainSequence": "LFDQLIHMYY [Peptide 9018.0030]",
    "labelClass": "yes (1)"
  },
  {
    "chainSequence": "ETPGIRYQY [Peptide 9015.0017]",
    "labelClass": "no (0)"
  },
  {
    "chainSequence": "CSMSYTWTGA [Peptide 1489.14]",
    "labelClass": "no (0)"
  },
  {
    "chainSequence": "STEWRLRRY [Peptide 9018.0019]",
    "labelClass": "no (0)"
  },
  {
    "chainSequence": "ETWETWWTDY [Peptide 9015.0169]",
    "labelClass": "no (0)"
  },
  {
    "chainSequence": "MRDNWRSELY [Peptide 9015.0155]",
    "labelClass": "no (0)"
  },
  {
    "chainSequence": "LTDDSDIAYY [Peptide 1580.12]",
    "labelClass": "no (0)"
  },
  {
    "chainSequence": "SSNLQGKLY [Peptide 86.0139]",
    "labelClass": "no (0)"
  },
  {
    "chainSequence": "LADQLIHMHY [Peptide 9015.0186]",
    "labelClass": "no (0)"
  },
  {
    "chainSequence": "GYADQLIHLY [Peptide 9018.0025]",
    "labelClass": "yes (1)"
  },
  {
    "chainSequence": "NSNTKATLLY [Peptide 1580.16]",
    "labelClass": "no (0)"
  },
  {
    "chainSequence": "ETKKGKAGY [Peptide 9015.0024]",
    "labelClass": "no (0)"
  },
  {
    "chainSequence": "SFDPIPIHY [Peptide 9015.0002]",
    "labelClass": "yes (1)"
  },
  {
    "chainSequence": "ITKIGPENPY [Peptide 9015.0162]",
    "labelClass": "no (0)"
  },
  {
    "chainSequence": "GLDDQLIHLY [Peptide 9018.0024]",
    "labelClass": "no (0)"
  },
  {
    "chainSequence": "LTDDSDIAY [Peptide 1580.11]",
    "labelClass": "no (0)"
  },
  {
    "chainSequence": "VSDRANGWFY [Peptide 9018.0012]",
    "labelClass": "no (0)"
  },
  {
    "chainSequence": "LYDQLIHLY [Peptide 9018.0028]",
    "labelClass": "no (0)"
  },
  {
    "chainSequence": "LSDLQDSGY [Peptide 1580.15]",
    "labelClass": "no (0)"
  },
  {
    "chainSequence": "ISERILSTY [Peptide 1522.03]",
    "labelClass": "no (0)"
  },
  {
    "chainSequence": "GYFPDWQNY [Peptide 1605.15]",
    "labelClass": "no (0)"
  },
  {
    "chainSequence": "VSIEWRQRRY [Peptide 9015.0182]",
    "labelClass": "no (0)"
  },
  {
    "chainSequence": "KQNPDIVIY [Peptide 1595.10]",
    "labelClass": "no (0)"
  }
]

###

The following sequences are listed with their measured log10(IC50) values.
# system: A*3301 (Homo sapiens, UniProt P04439, A270S/D185E/E176V/E277Q/E87N/F33T/G231S/H175R/I121M/I218V/I322F/K168Q/K210R/L300P/L318F/M331R/P217A/Q86R/Q94H/R138Q/T323A/T345S/T97I/V358M/Y195H)
# experimentDescription: biochemical
# Type: binding
No end group written: not given here.
quantityKind: log10(IC50) (log10 of the value in µM)

[
  {
    "chainSequence": "KQLCDLLIR [Peptide 1513.14]",
    "log10(IC50)": 0.84
  },
  {
    "chainSequence": "IMCLRFLSK [Peptide 1571.12]",
    "log10(IC50)": 0.42
  },
  {
    "chainSequence": "AQVLHLLKR [Peptide 88.0364]",
    "log10(IC50)": 0.58
  },
  {
    "chainSequence": "KTVRLIKFLY [Peptide 9017.0197]",
    "log10(IC50)": 0.82
  },
  {
    "chainSequence": "KQEAVRHFPR [Peptide 9017.0239]",
    "log10(IC50)": -0.24
  },
  {
    "chainSequence": "GLYYIHGNEK [Peptide 1589.40]",
    "log10(IC50)": 0.65
  },
  {
    "chainSequence": "AILGHIVSPR [Peptide 9017.0225]",
    "log10(IC50)": -1.13
  },
  {
    "chainSequence": "ISWLGLRSLK [Peptide 9012.0234]",
    "log10(IC50)": 0.40
  },
  {
    "chainSequence": "KLFGYSWYK [Peptide 76.0146]",
    "log10(IC50)": 0.57
  },
  {
    "chainSequence": "KTDEGGDWK [Peptide 88.0380]",
    "log10(IC50)": 1.12
  },
  {
    "chainSequence": "TTNCTYKGR [Peptide 1589.41]",
    "log10(IC50)": -0.78
  },
  {
    "chainSequence": "TQQMLQVEGR [Peptide 88.0128]",
    "log10(IC50)": 0.27
  },
  {
    "chainSequence": "TFPNPFPFDK [Peptide 88.0162]",
    "log10(IC50)": 0.26
  },
  {
    "chainSequence": "TVYAEPPR [Peptide 1556.10]",
    "log10(IC50)": 1.07
  },
  {
    "chainSequence": "VTIRVGGQLR [Peptide 1516.07]",
    "log10(IC50)": 0.97
  },
  {
    "chainSequence": "AFDLSHFLK [Peptide 9017.0063]",
    "log10(IC50)": 0.16
  },
  {
    "chainSequence": "TVQVYFDGNK [Peptide 88.0202]",
    "log10(IC50)": 1.19
  },
  {
    "chainSequence": "KIDWLIKRIR [Peptide 9017.0248]",
    "log10(IC50)": 0.83
  },
  {
    "chainSequence": "FTDLRIVYR [Peptide 1550.08]",
    "log10(IC50)": -2.01
  },
  {
    "chainSequence": "RLIERIRER [Peptide 9017.0124]",
    "log10(IC50)": 0.04
  },
  {
    "chainSequence": "SFFQNLQVIR [Peptide 9012.0232]",
    "log10(IC50)": -0.15
  },
  {
    "chainSequence": "RILSTCLGR [Peptide 9017.0073]",
    "log10(IC50)": 0.16
  },
  {
    "chainSequence": "SQWIKYRCDR [Peptide 88.0136]",
    "log10(IC50)": 0.43
  },
  {
    "chainSequence": "LTKMFCQLAK [Peptide 1556.51]",
    "log10(IC50)": 1.10
  },
  {
    "chainSequence": "GTRQARKNRR [Peptide 9017.0200]",
    "log10(IC50)": 0.92
  },
  {
    "chainSequence": "VTVYYGIPVWR [Peptide 1525.05]",
    "log10(IC50)": -2.35
  },
  {
    "chainSequence": "AACWRSRRR [Peptide 78.0322]",
    "log10(IC50)": 1.24
  },
  {
    "chainSequence": "RTHSSHLKSKK [Peptide 1556.76]",
    "log10(IC50)": 1.03
  },
  {
    "chainSequence": "WLSEPQKCFK [Peptide 88.0236]",
    "log10(IC50)": -0.21
  },
  {
    "chainSequence": "HLFRYSWYK [Peptide 76.0171]",
    "log10(IC50)": -1.08
  },
  {
    "chainSequence": "EFTAFLDAFK [Peptide 88.0179]",
    "log10(IC50)": -1.85
  },
  {
    "chainSequence": "AFRDLCIVYR [Peptide 78.0079]",
    "log10(IC50)": -1.39
  },
  {
    "chainSequence": "HIGPGRAFY [Peptide 1595.03]",
    "log10(IC50)": 0.65
  },
  {
    "chainSequence": "GTAKSVTCTR [Peptide 1556.31]",
    "log10(IC50)": -0.77
  },
  {
    "chainSequence": "SQIQYWQLIR [Peptide 88.0199]",
    "log10(IC50)": 0.88
  },
  {
    "chainSequence": "NSNAAAFLR [Peptide 88.0387]",
    "log10(IC50)": -1.30
  }
]

Provenance of the data: patent US9340577B2
